Cited source for all entries: paper PMC7700809

# ASSAY REMARKS: In vivo plasma pharmacokinetics in mice
# EXPERIMENTAL CONTEXT: male, mouse, iv, I.V. 1 mg/kg
# Protocol: After dosage, blood samples were collected into heparinized tubes at 2, 5, 15, 30, 60, 120, 240, 360, 540, and 720 min for the i.v. group, and at 5, 15, 30, 60, 90, 120, 240, 360, 540, 720 and 1440 min for the i.g. group. Plasma (100 μL) was isolated from the blood sample by centrifuging at 4 °C and 6000 rpm for 3 min and then stored at − 80 °C until analysis. An aliquot of 100 μL of each plasma sample was mixed with 20 μL of internal standard working solution (200 ng/mL of caffeine). […]
REPORTED METRIC: Tmax (min)
Answers are plain numbers, in min.

For the molecule CC[C@H]1CN2CCc3cc(OC)c(OC)cc3[C@@H]2C[C@@H]1C[C@H]1NCCc2cc(OC)c(OC)cc21 [Emetine] , what Tmax is on record?
1.8
